Where do the numbers come from? From paper PMC4118853.

Biological target: T1, MBP-YbcN (Escherichia coli cryptic prophage DLP12 …, UniProt Q47269 1-151)
T1 sequence: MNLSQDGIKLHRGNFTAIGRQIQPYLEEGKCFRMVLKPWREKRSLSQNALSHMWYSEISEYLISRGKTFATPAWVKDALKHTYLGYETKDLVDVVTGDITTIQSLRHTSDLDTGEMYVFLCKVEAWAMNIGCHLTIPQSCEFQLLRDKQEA
Assay: fluorescence anisotropy; apparent, per dimer; EMSA: 50 mM Tris-HCl pH 8.0, 5 mM EDTA (or 1 mM MgCl2), 1 mM DTT, 5% glycerol, 100 ug/ml BSA, on ice 15 min, 4% PAGE; anisotropy: 100 mM Tris-HCl pH 7.0, 10 nM
Settings: protein: recombinant; tags: N-terminal MBP; chain copies: 2; label: 3'-fluorescein; single strand
assay.metric: Kd (µM)

{"binder": "SS60-fluorescein (ssDNA) DNA: TTTGGTCTAACTTTACCGCTACTAAATGCCGCGGATTGGTTTCGCTGAATCAGGTTATTA", "measured.value": 4.6}
